Assignment: determine reported inhibition for the given molecules.
experimental system: Alkaline phosphatase, tissue-nonspecific isozyme (Homo sapiens) (UniProt P05186)
Sequence (P05186 whole entry, looked up): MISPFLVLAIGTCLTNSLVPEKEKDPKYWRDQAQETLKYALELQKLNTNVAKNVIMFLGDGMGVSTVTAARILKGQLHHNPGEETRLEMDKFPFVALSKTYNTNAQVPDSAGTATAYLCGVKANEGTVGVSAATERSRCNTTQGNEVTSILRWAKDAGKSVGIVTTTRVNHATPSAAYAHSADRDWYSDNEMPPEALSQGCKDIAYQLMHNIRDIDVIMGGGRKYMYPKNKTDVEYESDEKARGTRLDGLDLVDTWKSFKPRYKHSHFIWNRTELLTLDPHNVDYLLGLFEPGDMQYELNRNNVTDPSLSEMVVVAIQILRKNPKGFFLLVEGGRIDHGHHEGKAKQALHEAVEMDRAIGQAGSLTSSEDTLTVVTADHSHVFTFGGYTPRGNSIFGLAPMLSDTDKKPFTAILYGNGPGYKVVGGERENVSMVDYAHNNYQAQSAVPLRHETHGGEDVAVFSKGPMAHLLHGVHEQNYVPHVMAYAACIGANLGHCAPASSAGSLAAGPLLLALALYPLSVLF
assay details: human TNAP enzyme inhibitors, primary screen, biochemical, luminescent, no phosphate acceptor, uHTS (AID 1012);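 also: 0% = DMSO negative control and 100% = EDTA positive control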
experimental context: purified TNAP, CDP-star luminescence, 30 min; at 20 µM; hits give high values
Screen size: about 200,000 compounds; about 520 (0.26%) were called active. Only a selection was taken, and actives are over-represented in it overall.
Only the number, expressed in %, is required.

The measured inhibition associated with O=C(CSc1nnc(C2CC2)n1Cc1ccccc1)Nc1cccnc1Cl reads -1.5

Form field inhibition, entry Cc1[nH][nH]c(=O)c1C(c1ccc2c(c1)OCO2)c1c(C)[nH][nH]c1=O : 45.5

Briefly, inhibition measured for COc1ccc(Cc2n[nH]c(=S)n2NC(=O)Nc2ccc(C)cc2)cc1 : -16.9

What the record says about C=CCN(Cc1nc(-c2cc(OC)c3c(c2)OCO3)oc1C)C1CCS(=O)(=O)C1 (stereo not given) : inhibition is -9.3

Quick note, inhibition for c1ccc2c(NC3C4CC5CC(C4)CC3C5)nc(N3CCOCC3)nc2c1 (stereo not given) landed at -15.9

The recorded inhibition for CCCCC(CC(C)O)c1n[nH]c(=S)n1-c1ccccc1 (stereo not given) is -23.2

Quick note, inhibition for N=c1c2c3c(sc2ncn1N)CCCC3 landed at -4.9

Query Cc1cc(C)n2nc(SCC(=O)NC(=O)NCc3ccco3)nc2n1 yields inhibition of -9.4

# inhibition (molecule: O=C(COC(=O)c1cnccn1)Nc1cccc2ccccc12 ) is -10

Lab note: measured inhibition of S=c1[nH]nc(-c2ccco2)n1/N=C/c1ccc(Br)s1 was 58.4

For record CCC(C(=O)Nc1ccc2c(c1)OCCO2)c1ccccc1 (stereo not given) the listed inhibition is -22.2

Please fill in: inhibition reported for COC1=CCC2([N+](=O)[O-])CN(CC(=O)O)CC1([N+](=O)[O-])C2 (stereo not given) = -11.9

Noted for CCCCN(C)c1ccc([N+](=O)[O-])cc1 : its inhibition reads 13.3

# inhibition of CC12CCC(C(=O)N(NC(=O)c3ccccc3O)C1=O)C2(C)C (stereo not given) = 3.9

For reference, reported inhibition for CN(C)C(CNC(=O)c1ccc(S(=O)(=O)NCc2ccco2)cc1)c1ccccc1 (stereo not given) stands at 7.7

Form field inhibition, entry C/C(CC(=O)Nc1ccc(Cl)cc1)=N\NC(=O)C(=O)NCCO : -12.4

Lookup result for O=C(Cc1c[nH]c2ccccc12)N/N=C/c1cccc(F)c1 ; measured inhibition: -1

Reported inhibition for CC(C)(C)C1CCC(=NNC(=O)c2cc(-c3ccccc3)n[nH]2)CC1 (stereo not given) was 62.6

The reported inhibition of the molecule O=C(NC(=S)Nc1ccc(S(=O)(=O)Nc2ncccn2)cc1)c1cccc(Br)c1 was 5.9

get_value(item= CNc1ccc(SC#N)cc1 , readout=inhibition) returns -10.5

Summary for this molecule, O=C(COC(=O)CSc1nnc(-c2ccc(Cl)cc2)o1)Nc1cc(Cl)cc(Cl)c1 : inhibition is -10.5

Kindly note the recorded inhibition for CCn1c(SCC(=O)Nc2nccs2)nnc1-c1ccco1 , which is 37.9

// sample COCCNC(=O)c1ccccc1NS(=O)(=O)c1ccc(C)c([N+](=O)[O-])c1 , its inhibition was -7.3

get_value(item= CC(NC(=O)C(=O)N/N=C/c1ccc(Cl)cc1)c1ccccc1 (stereo not given) , readout=inhibition) returns 3.3

Summary for this molecule, CC(C)(C)C1CCC(=NNC(=O)c2ccc(Br)o2)CC1 (stereo not given) : inhibition is 4.2

// field: inhibition; key: CC(C)CNC(=S)Nc1ccc(F)cc1 ; value = -5.6

Notebook: Cc1[nH][nH]c(=O)c1C(c1ccc(-c2ccc(Cl)cc2)o1)c1c(C)[nH][nH]c1=O , inhibition read as -57.7

Reported inhibition for COCC(=O)Nc1cc(C(=O)OC)cc(C(=O)OC)c1 was -4.5

# molecule O=C(Nc1nnc(Cc2ccccc2)s1)c1cnccn1 ; its inhibition = -2.7

Query CC(C)Oc1ccc(CC(=O)NNC(=S)Nc2ccc(Br)cc2)cc1 yields inhibition of -117

Measured inhibition, O=C(OCc1nc2ccccc2[nH]1)C1CCCCC1 : -36

Cn1cnnc1Sc1ccc(S(C)(=O)=O)cc1[N+](=O)[O-] yielded inhibition of -1.9

Briefly, inhibition measured for CC(Oc1ccccc1)C(=O)Nc1oc(-c2ccco2)c(-c2ccco2)c1C#N (stereo not given) : -18.5

# molecule Cc1noc(/C=C/N(C)C)c1S(=O)(=O)N1CCCC(C(=O)NCc2ccco2)C1 (stereo not given) ; its inhibition = -12

Recorded result, COc1cc2[nH]c(=O)n(Cc3ccc(C(=O)NC4CCN(Cc5ccccc5)CC4)cc3)c(=O)c2cc1OC , inhibition: 1.5

Summary for this molecule, NS(=O)(=O)c1ccc(NC(=S)NC(=O)c2cccc(Br)c2)cc1 : inhibition is 57.3

Documented inhibition of CC(C)C(=O)Nc1ccc2c3c(cccc13)CC2 : -18

Briefly, inhibition measured for CCOc1ccc(C(=O)NC2CCN(CC(=O)NCc3cccs3)CC2)cc1 : -4.7

Looking up O=C(O)CCn1c(SCc2cc(=O)n3ccccc3n2)nc2ccsc2c1=O , I found its inhibition recorded as -2.2

// field: inhibition; key: COc1ccc(/C=N/NC(=O)c2ccncc2)cc1CN1CCCc2ccccc21 ; value = -28.5

Given item S=c1[nH]nc(-c2cccs2)n1/N=C/c1cccs1 , the value recorded as its inhibition is 36.2

// inhibition lookup, molecule = CCC(C)NC(=O)CSC1=Nc2ccccc2C2=NC(CCC(=O)NCc3ccco3)C(=O)N12 (stereo not given) , result: -11

What the record says about CC1=NN(c2ccccc2)C(=O)C1C(=O)c1ccc([N+](=O)[O-])cc1 (stereo not given) : inhibition is -4.4

Reported inhibition ( CCC(=O)Nc1cc(C(F)(F)F)ccc1N1CCCC1 ) = -1.6

For this molecule ( Cc1ccc(NC(=O)C2CCCN(S(=O)(=O)c3c(C)noc3C)C2)c(C)c1 (stereo not given) ), measured inhibition is -3.2
